biological target: HDAC1 (Homo sapiens (Human), UniProt Q13547); assay: In vitro enzyme inhibition assay - HDAC (HDAC-Glo I/II), HDAC1; assay type: biochemical; conditions: read-out: HDAC IC50 (nM) HDAC 1
Sequence (Q13547 whole entry): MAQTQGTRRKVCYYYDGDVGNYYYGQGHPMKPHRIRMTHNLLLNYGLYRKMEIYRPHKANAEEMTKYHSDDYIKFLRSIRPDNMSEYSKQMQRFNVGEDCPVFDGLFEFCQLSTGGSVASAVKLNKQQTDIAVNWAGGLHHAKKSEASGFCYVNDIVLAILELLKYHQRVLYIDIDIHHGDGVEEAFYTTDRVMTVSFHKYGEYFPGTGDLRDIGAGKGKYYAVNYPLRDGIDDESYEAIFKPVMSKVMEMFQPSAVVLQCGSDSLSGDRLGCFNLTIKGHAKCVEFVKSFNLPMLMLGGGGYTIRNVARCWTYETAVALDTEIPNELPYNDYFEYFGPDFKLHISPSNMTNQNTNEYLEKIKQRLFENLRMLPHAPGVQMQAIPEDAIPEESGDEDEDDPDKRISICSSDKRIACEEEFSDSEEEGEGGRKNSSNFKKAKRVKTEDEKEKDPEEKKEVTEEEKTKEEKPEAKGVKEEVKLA
Structures can show the parent of a compound that is named as a salt.
Observation type: IC50 (nM)
Give bare numbers, in nM.

COc1ccc(-c2cnc(N3CCC(NCc4ccc(/C=C/C(=O)NO)cc4)CC3)c(C#N)c2-c2ccc(C#N)nc2)cc1O [Example 208] | 1.74

Parameters: items (list). Returns: IC50 for each item.
1. COc1ccc(-c2c(-c3ccc(C#N)c(F)c3)nc(N3CCC(N)CC3)n3ccnc23)cc1OCCCCCCC(=O)NO [Example 20, hydrochloride]
2. CC(C)(O)COc1ccc(-c2cnc(N3CCC(NCc4ccc(/C=C/C(=O)NO)cc4)CC3)c(C#N)c2-c2ccc(C#N)c(F)c2)cc1O [Example 143, formate]
3. CC(C)(O)COc1ccc(-c2cnc(N3CCC(NCc4ccc(CCC(=O)NO)cc4)CC3)c(C#N)c2-c2ccc(C#N)c(F)c2)cc1O [Example 188, formate]

Reply:
1: 311; 2: 1.25; 3: 3.06
